Where do the numbers come from? From a collection of fitness landscapes (doi:10.1016/j.celrep.2020.107928).

Below is a list of entries, each paired with its recorded one-hybrid fitness for binding parS DNA value.
B1: Caulobacter ParB omega fusion; a variant is named by its letters at X, in order, B8GW30 (parent)
chain: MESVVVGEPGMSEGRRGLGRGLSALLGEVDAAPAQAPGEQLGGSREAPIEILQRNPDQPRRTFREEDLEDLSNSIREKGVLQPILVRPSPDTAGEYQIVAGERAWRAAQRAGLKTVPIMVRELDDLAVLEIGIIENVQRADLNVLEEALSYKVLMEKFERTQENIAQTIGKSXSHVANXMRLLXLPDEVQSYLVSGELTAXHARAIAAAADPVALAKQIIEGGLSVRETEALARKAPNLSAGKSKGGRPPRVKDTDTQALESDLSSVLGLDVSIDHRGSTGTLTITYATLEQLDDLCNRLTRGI

Variants of: B1
PROTOCOL_TEXT: one-hybrid fitness for binding parS DNA (scaled: cognate 1, non-cognate 0); higher = stronger binding
RUN_PARAMETERS: with parS DNA site
The full ranking holds about 81,000 sequences; the median of “one-hybrid fitness for binding parS DNA” is about -0.17, and the highest 2% start at about 0.51. What follows is part of a selection rich in the highest values, with near analogues and random picks from the rest.
Form: value (number only, do not type unit).

Below: 8 variants and their reported one-hybrid fitness for binding parS DNA.
> print(dat)
   mutant.code  measurement
1         RLWP        0.201
2         RLST        0.939
3         RLWH          0.3
4         RCFW        0.256
5         RTSC        0.969
6         RLGT        0.925
7         RLWT        0.889
8         RVVC        0.914

one-hybrid fitness for binding parS DNA lookup needed for `RVKC` , thanks.
0.813

one-hybrid fitness for binding parS DNA lookup needed for `RLSM` , thanks.
0.329

one-hybrid fitness for binding parS DNA lookup needed for `RVKF` , thanks.
0.355
